Tested on: WPMY1-CANX-COX4
Assay: phenotypically active (imaging signature differs from DMSO and reproducible) at any of 0.3-9 uM (binary (1 = active, 0 = inactive)); higher = active
Conditions: treatment time: 24 h
Where a name gives a salt, the structure may show the parent alone.
Outcomes: 1 for active, -1 for inactive

| molecule | category |
| --- | --- |
| OCCn1cc(-c2cnc3nnn(Cc4ccc5ncccc5c4)c3n2)cn1 | -1 |
| C[C@@H](N)[C@H]1CC[C@H](C(=O)Nc2ccncc2)CC1 | 1 |
| c1ccc2c(c1)CN1CCCC1=N2 [Desoxypeganine Hydrochloride] | -1 |
| CC1=Nc2ccc(Cl)cc2S(=O)(=O)N1 [diazoxide] | -1 |
| C[N+](C)(C)CCCCCC[N+](C)(C)C [Hexamethonium bromide] | -1 |
